Each item that follows carries a reported Conc..
measurement description: Solubility Characteristics of COPs
Type: physicochemical
No end group written: not given here.
observable: Conc. (µg/mL)

{"columns": ["chain", "observable", "value measured"],
 "data": [
  ["ASQHGCHGDTIPRGIEYIQHNGVVQESYYRYVAREQSCRRPNAQRFGISNYCQIYPPNVNKIRE [AllerDM1.52]", "Conc.", 2300],
  ["SEPCIIHRGKPFQLEALFEANQNSKTAKIEIKASIDGLEVDVPGIDPNACHYMKCPLVKGQQYDIKYTWNVPKIA [AllerDM2.7]", "Conc.", 3500],
  ["HGSEPCIIHRGKPFQLEALFEANQNSKTAKIEIKASIDGLEVDVPGIDPNACHYMK (cysteines drawn unpaired) [AllerDM2.4]", "Conc.", 4200]
]}
